# experiment.summary: qHTS assay to identify small molecule agonists of the retinoic acid receptor (RAR) signaling pathway (AID 1159553)
# settings: C3RL4 RARE luciferase reporter, agonist, 6 h; series mostly up to 73.3 µM
# From the text: National Center for Advancing Translational Sciences [NCATS] NIH Chemical Genomics Center [NCGC] U.S. Environmental Protection Agency [EPA] National Institutes of Environmental Health Sciences [NIEHS] National Toxicology Program [NTP] […]
Results filed as inconclusive are left out. The source made the active and inactive calls. Calls follow the shape of the dose curve; as a rule, active = well fitted activation curve with a large enough effect in the repeat runs; inconclusive = weak or mixed curves, or effect the other way; inactive = no such curve, though single readings can be large or run the other way.
experimental.readout: outcome

# count of solved cases: 6
C[N+](C)(C)CCOC(N)=O: inactive
CC(=O)[C@H]1CC[C@H]2[C@@H]3C[C@H](C)C4=CC(=O)CC[C@]4(C)[C@H]3[C@@H](O)C[C@]12C: inactive
CC1(C)C(=O)N(Br)C(=O)N1Cl: inactive
COc1ccc(CCC(=O)c2c(O)cc(O[C@@H]3O[C@H](CO)[C@@H](O)[C@H](O)[C@H]3O[C@@H]3O[C@@H](C)[C@H](O)[C@@H](O)[C@H]3O)cc2O)cc1O: inactive
Cc1cc(O)c(C(C)C)cc1Cl: inactive
CCCOc1ccc(S(=O)(=O)N2CCN(CC)CC2)cc1-c1nc2c(CC)n(Cc3ccccn3)nc2c(=O)[nH]1: inactive

// below: outcome requested for another compound
Q: What does the record list as outcome for "CCN(Cc1cccc(S(=O)(=O)O)c1)c1ccc(C(=C2C=CC(=[N+](CC)Cc3cccc(S(=O)(=O)[O-])c3)C=C2)c2ccccc2)cc1" ?
A: inactive

* * *

# tgt: Nuclear receptor subfamily 1 group I member 3 (Homo sapiens) (UniProt Q14994)
# Sequence (Q14994 whole entry, looked up): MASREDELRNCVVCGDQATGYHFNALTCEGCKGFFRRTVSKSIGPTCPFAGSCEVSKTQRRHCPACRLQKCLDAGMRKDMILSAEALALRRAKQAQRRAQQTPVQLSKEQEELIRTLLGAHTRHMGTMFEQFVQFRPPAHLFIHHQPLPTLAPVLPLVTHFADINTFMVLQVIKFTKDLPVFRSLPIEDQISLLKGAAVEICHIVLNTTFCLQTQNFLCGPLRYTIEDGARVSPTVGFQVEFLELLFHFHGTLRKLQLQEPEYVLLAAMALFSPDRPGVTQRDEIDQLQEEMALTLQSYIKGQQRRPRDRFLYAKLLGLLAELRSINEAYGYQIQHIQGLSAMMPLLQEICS
# experiment.summary: qHTS assay to identify small molecule antagonists of the constitutive androstane receptor (CAR) signaling pathway (AID 1224838);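 also: HepG2 cells stably expressing hCAR with CYP2B6 luciferase reporter stimulated by CITCO; nearly all actives have a fitted effect of over 40% in size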
# settings: HepG2-CYP2B6-hCAR luciferase, CITCO-stimulated, 24 h; series mostly up to 92.4 µM
Inconclusive results are not listed. The source made the active and inactive calls. Calls come from the whole dose curve; as a rule, active = well fitted inhibition curve with a large enough effect in the repeat runs; inconclusive = weak or mixed curves, or effect the other way; inactive = no such curve, though single readings can be large or run the other way.
Write down one outcome, taken from TRUE = active, FALSE = inactive

CC(=O)[C@H]1CC[C@H]2[C@@H]3C[C@H](C)C4=CC(=O)CC[C@]4(C)[C@H]3[C@@H](O)C[C@]12C: FALSE

Q: Outcome? "CC1(C)C(=O)N(Br)C(=O)N1Cl"
A: FALSE

Q: Which result was noted for this molecule in the test: "O=C1OCCN1/N=C/c1ccc([N+](=O)[O-])o1"
A: FALSE

Q: Hey, what did the test say about CCOC(=O)C(C)Oc1ccc(Oc2nc3ccc(Cl)cc3o2)cc1 (centres undefined) ?
A: FALSE

Q: Identify the outcome logged in this assay for the molecule shown: "CCCCOC(=O)CCS"
A: TRUE

Q: Record request — test call for "CC1=C(C=O)C(C)(C)CCC1"
A: FALSE

Q: Can you look up the reported call for "CN1CCCN=C1/C=C/c1cccs1" for me?
A: FALSE

Q: Assay result, entry "c1cnc2c(n1)CCCC2" — outcome?
A: FALSE

Q: Entry "COCCOC" : call = ?
A: TRUE

Q: Could you check what this test reported for "CC1(C)C2=CCCC(C)(C)[C@]23CC[C@H]1C3" ?
A: FALSE

Q: Called result for "O=C(NCCCN1CCOCC1)c1ccc(Cl)cc1"
A: FALSE

Q: Answer briefly: the call reported for "C1COCO1" in this assay.
A: FALSE

Q: Recorded test outcome, item "Nc1c(I)cc(I)c(C(=O)N(CCC(=O)O)c2ccccc2)c1I"
A: FALSE

Q: Returns: the outcome recorded for "C(=C\c1ccccc1)/CN1CCN(C(c2ccccc2)c2ccccc2)CC1" in this assay.
A: FALSE

Q: Please indicate how the test categorized "CCc1nn(CCCN2CCN(c3cccc(Cl)c3)CC2)c(=O)n1CCOc1ccccc1" .
A: FALSE

Q: Per the assay record, what outcome was assigned to "CC[C@@H]([C@H](C)O)n1ncn(-c2ccc(N3CCN(c4ccc(OC[C@@H]5CO[C@@](Cn6cncn6)(c6ccc(F)cc6F)C5)cc4)CC3)cc2)c1=O" ?
A: FALSE

Q: # outcome recorded in this test, key = "COc1cc2c(cc1OC)-c1cc(=Nc3c(C)cc(C)cc3C)n(C)c(=O)n1CC2"
A: FALSE

Q: State the result this test recorded for "CN(C(=O)C(Cl)Cl)c1ccc(OC(=O)c2ccco2)cc1" .
A: FALSE

Q: # lookup: test call for "CC1=C(/C=C/C(C)=C\C=C\C(C)=C\C(=O)O)C(C)(C)CCC1"
A: FALSE
